Tested on: HeLa
Assay: Cytotoxicity against cancer cell lines (Example 5), Hela
Assay type: cell-based
Conditions: Tables 5-12
Protocol: All of the compounds synthesized were tested against a number of cancer cell lines: Hela KB, Cos7, Molt4, K562, EU1, and T98G. The cancer cell lines vary from leukemia cell lines (Molt4, EU, K562) to solid-state tumor cell lines (Hela, KB, Cos7) and the drug resistant cell lines (T98G).
pIC50: −log10 of the molar value.
pIC50 overview
EXPERIMENTAL ENDPOINT: pIC50

| MOLECULE | RESULT |
| --- | --- |
| COc1cccc2c1C(=O)c1c(OC)cc(N)cc1C2=O [BW-AQ-145] | < 4.30 |
| [N-]=[N+]=NCCOc1cccc2c1C(=O)c1c(OCCN=[N+]=[N-])cc(C(=O)N=[N+]=[N-])cc1C2=O [BW-AQ-122] | < 4.90 |
| C=CCOc1cccc2c1C(=O)c1c(OCC=C)cc(N)cc1C2=O [BW-AQ-155] | ~4.30 |
| CCOc1cccc2c1C(=O)c1c(OCC)cc(NC(=O)CCCCl)cc1C2=O [BW-AQ-179] | 5.20 |
| C=CCOc1cccc2c1C(=O)c1c(OCC=C)cc(NC(=O)CI)cc1C2=O [BW-AQ-163] | < 4.30 |
| COc1cccc2c1C(=O)c1c(OC)cc(NC(C)=O)cc1C2=O [BW-AQ-134] | < 4.30 |
| COc1cccc2c1C(=O)c1c(OC)cc(NC(=O)CCCl)cc1C2=O [BW-AQ-173] | 4.30 |
| COc1cccc2c1C(=O)c1c(OC)cc(NC(=O)C(F)(F)F)cc1C2=O [BW-AQ-132] | < 4.30 |
| C=CCOc1cccc2c1C(=O)c1c(OCC=C)cc(NC(=O)CCl)cc1C2=O [BW-AQ-161] | < 4.70 |

====

tested on: T98G; experiment: Cytotoxicity against cancer cell lines (Example 5), T98G; assay type: cell-based; conditions: Tables 5-12; drug resistant cell line
IC50 overview

| STRUCTURE | IC50 |
| --- | --- |
| COc1cccc2c1C(=O)c1c(OC)cc(NC(=O)CCCl)cc1C2=O | > 50 µM |
| CCCOC(=O)c1cc(OCCC)c2c(c1)C(=O)c1cccc(OCCC)c1C2=O | > 50 µM |
| CCOc1cccc2c1C(=O)c1c(OCC)cc(NC(=O)CN)cc1C2=O | 37.3 µM |
| COC(=O)c1cc(OCCN=[N+]=[N-])c2c(c1)C(=O)c1cccc(OCCN=[N+]=[N-])c1C2=O | > 12.5 µM |
| O=C1c2cccc(O)c2C(=O)c2c(O)cc(-c3cccs3)cc21 | 13.8 µM |
| O=C(CBr)Nc1cc(O)c2c(c1)C(=O)c1cccc(OCc3ccccc3)c1C2=O | 13.8 µM |
| COc1cccc2c1C(=O)c1c(OC)cc(NC(=O)C(F)(F)F)cc1C2=O | > 12.5 µM |
| C=CCOc1cccc2c1C(=O)c1c(OCC=C)cc(N)cc1C2=O | > 50 µM |
| Nc1cc(OCc2ccccc2)c2c(c1)C(=O)c1cccc(OCc3ccccc3)c1C2=O | > 50 µM |
| COc1cccc2c1C(=O)c1c(OC)cc(NS(=O)(=O)CCl)cc1C2=O | > 50 µM |

====

tested on: EU1; experiment: Cytotoxicity against cancer cell lines (Example 5), EU1; format: cell-based; conditions: Tables 5-12
pIC50: −log10 of the molar value.
pIC50 overview
EXPERIMENTAL ENDPOINT: pIC50

| STRUCTURE | EXPERIMENTAL ENDPOINT | CENSORING QUALIFIER | READOUT NUMBER |
| --- | --- | --- | --- |
| CCOc1cccc2c1C(=O)c1c(OCC)cc(NC(=O)CNC)cc1C2=O | pIC50 | = | 4.87 |
| COc1cccc2c1C(=O)c1c(OC)cc(NC(=O)COCc3ccccc3)cc1C2=O | pIC50 | = | 4.69 |
| COCC(=O)Nc1cc(OC)c2c(c1)C(=O)c1cccc(OC)c1C2=O | pIC50 | < | 4.60 |
| CCCOC(=O)c1cc(OCCC)c2c(c1)C(=O)c1cccc(OCCC)c1C2=O | pIC50 | < | 4.60 |
| C=CCOc1cccc2c1C(=O)c1c(OCC=C)cc(NC(=O)CCl)cc1C2=O | pIC50 | < | 5.00 |
| [N-]=[N+]=NC(=O)c1cc(OCc2ccccc2)c2c(c1)C(=O)c1cccc(OCc3ccccc3)c1C2=O | pIC50 | < | 4.60 |
| C=CC(=O)Nc1cc(OCC)c2c(c1)C(=O)c1cccc(OCC)c1C2=O | pIC50 | = | 5.22 |
| COc1cccc2c1C(=O)c1c(OC)cc(NC(=O)CCCCl)cc1C2=O | pIC50 | < | 4.60 |
| CCOc1cccc2c1C(=O)c1c(OCC)cc(NC(=O)CCCCl)cc1C2=O | pIC50 | = | 4.75 |
| Nc1cc(OCc2ccccc2)c2c(c1)C(=O)c1cccc(OCc3ccccc3)c1C2=O | pIC50 | < | 4.60 |
| CCOc1cccc2c1C(=O)c1c(OCC)cc(NC(=O)COCc3ccccc3)cc1C2=O | pIC50 | = | 4.77 |
| COc1cccc2c1C(=O)c1c(OC)cc(NC(=O)CCCl)cc1C2=O | pIC50 | = | 4.60 |
| COc1cccc2c1C(=O)c1c(OC)cc(NC(=O)C(F)F)cc1C2=O | pIC50 | < | 4.60 |
| C=CCOc1cccc2c1C(=O)c1c(OCC=C)cc(C(=O)O)cc1C2=O | pIC50 | < | 4.60 |
| COc1cccc2c1C(=O)c1c(OC)cc(N)cc1C2=O | pIC50 | < | 4.60 |
